These measurements were taken from ChEMBL document CHEMBL1138494.

Target: Glucagon receptor (Homo sapiens)
Sequence (P47871 whole entry): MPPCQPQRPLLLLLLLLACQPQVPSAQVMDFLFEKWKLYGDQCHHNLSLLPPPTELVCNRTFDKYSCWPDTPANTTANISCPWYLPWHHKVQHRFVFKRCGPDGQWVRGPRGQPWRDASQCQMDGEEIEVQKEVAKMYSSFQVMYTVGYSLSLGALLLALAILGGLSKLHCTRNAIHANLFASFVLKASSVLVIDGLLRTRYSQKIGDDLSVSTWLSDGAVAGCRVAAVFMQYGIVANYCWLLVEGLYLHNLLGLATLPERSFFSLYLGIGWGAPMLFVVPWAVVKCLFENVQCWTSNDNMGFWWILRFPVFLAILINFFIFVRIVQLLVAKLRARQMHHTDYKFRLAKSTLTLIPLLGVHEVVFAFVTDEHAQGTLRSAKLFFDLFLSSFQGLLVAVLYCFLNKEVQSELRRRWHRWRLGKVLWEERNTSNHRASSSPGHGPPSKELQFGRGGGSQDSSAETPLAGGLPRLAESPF
Test: Binding affinity to human recombinant glucagon receptor expressed in BHK cells by membrane filter assay
Assay type: cell-based
Would you mind telling me the reported pIC50 of each entry?
Numbers only, as −log10 of the molar value.

Some molecules with known pIC50 results, for comparison:
- molecule: "O=C(O)CCNC(=O)c1ccc(CN(c2ccc(C(F)(F)F)cc2)c2nc(-c3ccc(Cl)cc3)cs2)cc1"
  measurement_type: "pIC50"
  quantitative_result: 7.03
- molecule: "O=C(O)CCNC(=O)c1ccc(CC(c2ccc(Cl)cc2)c2nc(-c3ccc(C(F)(F)F)cc3)cs2)cc1 (centres undefined)"
  measurement_type: "pIC50"
  quantitative_result: 7.42
- molecule: "O=C(O)CCNC(=O)c1ccc(CN(c2ccc(Cl)cc2)c2nc(-c3ccc(OC(F)(F)F)cc3)cs2)cc1"
  measurement_type: "pIC50"
  quantitative_result: 7.28

So what does the record say about pIC50 for O=C(O)CCNC(=O)c1ccc(CN(c2ccc(Cl)cc2)c2nc(-c3ccc(C(F)(F)F)cc3)cs2)cc1 ?
7.28

----------
Would you mind telling me the reported fold change (FC) of each entry?
Species on record: Homo sapiens
Assay: Selectivity ratio of IC50 for human recombinant glucagon receptor to IC50 for human recombinant GIPR
Give bare numbers.

Some compounds with known fold change (FC) results, for comparison:
- compound: "O=C(O)CCNC(=O)c1ccc(N(Cc2ccc3c(c2)Cc2ccccc2-3)c2nc(-c3ccc(OC(F)(F)F)cc3)cs2)cc1"
  fold change (FC): 5
- compound: "O=C(O)CCNC(=O)c1ccc(CN(c2nc(-c3ccc(Cl)c(Cl)c3)cs2)C2CCCc3ccccc32)cc1 (configuration not stated)"
  fold change (FC): 5
- compound: "Cc1cc(N(Cc2ccc(C(=O)NCCC(=O)O)cc2)c2nc(-c3ccc(C(F)(F)F)cc3)cs2)ccc1C(C)C"
  fold change (FC): 5
- compound: "O=C(O)CCNC(=O)c1ccc(CN(c2ccc(C3=CCCCC3)cc2)c2nc(-c3ccc(OC(F)(F)F)cc3)cs2)cc1"
  fold change (FC): 5
- compound: "O=C(O)CCNC(=O)c1ccc(CN(c2ccc3c(c2)Cc2ccccc2-3)c2nc(-c3ccc(OC(F)(F)F)cc3)cs2)cc1"
  fold change (FC): 5

Batch lookup, fold change (FC) per entry.
1. O=C(O)CCNC(=O)c1ccc(CN(c2ccc3c(c2)CCC3)c2nc(-c3ccc(OC(F)(F)F)cc3)cs2)cc1
2. Cc1cc(N(Cc2ccc(C(=O)NCCC(=O)O)cc2)c2nc(-c3cc(C(F)(F)F)cc(C(F)(F)F)c3)cs2)ccc1C(C)C
3. O=C(O)CCNC(=O)c1ccc(N(Cc2ccc3c(c2)Cc2ccccc2-3)c2nc(-c3ccc(Cl)cc3)cs2)cc1
4. O=C(O)CCNC(=O)c1ccc(CN(c2ccc(C(F)(F)F)cc2)c2nc(-c3ccc(Cl)cc3)cs2)cc1
5. O=C(O)CCNC(=O)c1ccc(CN(c2ccc(C3=CCCCC3)cc2)c2nc(-c3ccc(C(F)(F)F)cc3)cs2)cc1
6. O=C(O)CCNC(=O)c1ccc(CN(c2ccc(SC(F)(F)F)cc2)c2nc(-c3ccc(C(F)(F)F)cc3)cs2)cc1
7. O=C(O)CCNC(=O)c1ccc(N(Cc2ccc3c(c2)Cc2ccccc2-3)c2nc(-c3ccc(C(F)(F)F)cc3)cs2)cc1

[5, 5, 5, 5, 5, 5, 5]

Batch lookup, fold change (FC) per entry.
1. CC(C)(C)c1ccc(-c2csc(N(Cc3ccc(C(=O)NCCC(=O)O)cc3)c3ccc(C4=CCCCC4)cc3)n2)cc1
2. O=C(O)CCNC(=O)c1ccc(CN(c2ccc3c(c2)CCC3)c2nc(-c3ccc(C(F)(F)F)cc3)cs2)cc1
3. CC(C)(C)c1ccc(-c2csc(N(Cc3ccc(C(=O)NCCC(=O)O)cc3)c3ccc(C(C)(C)C)cc3)n2)cc1
4. O=C(NC[C@@H](O)C(=O)O)c1ccc(CN(c2ccc3c(c2)CCC3)c2nc(-c3ccc(C(F)(F)F)cc3)cs2)cc1

[5, 5, 5, 5]

----------
Assay: Half life in fasted Sprague-Dawley rat plasma at 1.58 mg/kg, iv by HTLC-MS/MS analysis
Format: ADME, organism-based
Design: dose 1.58 mg/kg, route intravenous
measurement_type: half-life (min)
Numbers only, in min.

So what does the record say about half-life for O=C(O)CCNC(=O)c1ccc(CC(c2ccc(Cl)cc2)c2nc(-c3ccc(C(F)(F)F)cc3)cs2)cc1 (stereo unspecified) ?
24

----------
Assay: Tmax in fasted Sprague-Dawley rat at 1.60 mg/kg, iv and 3.25 mg/kg, po by HTLC-MS/MS analysis
Type: ADME, organism-based
Settings: in vivo
measurement_type: Tmax (h)
One number for each entry, in h.

So what does the record say about Tmax for O=C(O)CCNC(=O)c1ccc(CN(c2ccc(Cl)cc2)c2nc(-c3ccc(C(F)(F)F)cc3)cs2)cc1 ?
1.5

----------
Molecular target: Gastric inhibitory polypeptide receptor (Homo sapiens, UniProt P48546)
Sequence (P48546 whole entry): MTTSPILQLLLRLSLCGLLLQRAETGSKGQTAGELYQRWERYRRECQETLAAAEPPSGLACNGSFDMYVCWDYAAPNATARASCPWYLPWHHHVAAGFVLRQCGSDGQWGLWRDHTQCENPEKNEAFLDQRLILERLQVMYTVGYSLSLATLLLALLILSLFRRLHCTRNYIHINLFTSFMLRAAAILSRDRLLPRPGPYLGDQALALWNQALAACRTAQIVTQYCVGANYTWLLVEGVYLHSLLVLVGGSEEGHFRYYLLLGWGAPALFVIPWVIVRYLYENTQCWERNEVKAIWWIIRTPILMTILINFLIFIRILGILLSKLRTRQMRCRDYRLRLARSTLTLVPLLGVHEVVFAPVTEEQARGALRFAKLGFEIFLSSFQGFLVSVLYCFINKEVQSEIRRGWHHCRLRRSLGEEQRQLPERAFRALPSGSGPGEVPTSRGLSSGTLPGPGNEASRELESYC
Experiment: Binding affinity to human recombinant GIPR expressed in BHK cells by membrane filter assay
Format: cell-based
measurement_type: pIC50
Give bare numbers, as −log10 of the molar value.

Some molecules with known pIC50 results, for comparison:
- molecule: "Cc1cc(N(Cc2ccc(C(=O)NCCC(=O)O)cc2)c2nc(-c3ccc(C(F)(F)F)cc3)cs2)ccc1C(C)C"
  pIC50: 6.53
- molecule: "O=C(O)CCNC(=O)c1ccc(CN(c2ccc(C(F)(F)F)cc2)c2nc(-c3ccc(Cl)cc3)cs2)cc1"
  pIC50: 5.96
- molecule: "O=C(O)CCNC(=O)c1ccc(CC(c2ccc(Cl)cc2)c2nc(-c3ccc(C(F)(F)F)cc3)cs2)cc1 (stereo not drawn)"
  pIC50: 6.68
- molecule: "O=C(O)CCNC(=O)c1ccc(CN(c2ccc3c(c2)CCC3)c2nc(-c3ccc(C(F)(F)F)cc3)cs2)cc1"
  pIC50: 6.29
- molecule: "O=C(O)CCNC(=O)c1ccc(CN(c2ccc(Cl)cc2)c2nc(-c3ccc(OC(F)(F)F)cc3)cs2)cc1"
  pIC50: 6.34
- molecule: "O=C(O)CCNC(=O)c1ccc(CN(c2ccc3c(c2)Cc2ccccc2-3)c2nc(-c3ccc(OC(F)(F)F)cc3)cs2)cc1"
  pIC50: 6.54
- molecule: "O=C(O)CCNC(=O)c1ccc(CN(c2ccc(Cl)cc2)c2nc(-c3ccc(C(F)(F)F)cc3)cs2)cc1"
  pIC50: 6.39

Let us examine a further case.
So what does the record say about pIC50 for O=C(O)CCNC(=O)c1ccc(CN(c2ccc3c(c2)CCCC3)c2nc(-c3ccc(Cl)c(Cl)c3)cs2)cc1 ?
6.41

----------
Assay: Binding affinity to glucagon receptor in monkey liver membrane by membrane filter assay
Format: cell membranes, Macaca mulatta
Hi! Just check whether IC50 is below 70 nM. Below gives fulfilled, equal or above gives not fulfilled.

- cpd_smiles: "O=C(O)CCNC(=O)c1ccc(CN(c2ccc3c(c2)CCC3)c2nc(-c3ccc(OC(F)(F)F)cc3)cs2)cc1"
  class: "not fulfilled"
- cpd_smiles: "O=C(O)CCNC(=O)c1ccc(CN(c2ccc(C(F)(F)F)cc2)c2nc(-c3ccc(Cl)cc3)cs2)cc1"
  class: "not fulfilled"
- cpd_smiles: "O=C(O)CCNC(=O)c1ccc(CN(c2ccc3c(c2)Cc2ccccc2-3)c2nc(-c3ccc(OC(F)(F)F)cc3)cs2)cc1"
  class: "fulfilled"

Threshold test, IC50 < 70 nM: O=C(O)CCNC(=O)c1ccc(CN(c2ccc3c(c2)CCC3)c2nc(-c3ccc(C(F)(F)F)cc3)cs2)cc1
not fulfilled

Continue with O=C(O)CCNC(=O)c1ccc(CN(c2ccc(Cl)cc2)c2nc(-c3ccc(C(F)(F)F)cc3)cs2)cc1
fulfilled

Continue with O=C(O)CCNC(=O)c1ccc(CN(c2ccc3c(c2)CCCC3)c2nc(-c3ccc(Cl)c(Cl)c3)cs2)cc1
fulfilled

----------
Would you mind telling me the reported pIC50 of each entry?
Target: Glucagon receptor (Rattus norvegicus, UniProt P30082)
Sequence (P30082 whole entry): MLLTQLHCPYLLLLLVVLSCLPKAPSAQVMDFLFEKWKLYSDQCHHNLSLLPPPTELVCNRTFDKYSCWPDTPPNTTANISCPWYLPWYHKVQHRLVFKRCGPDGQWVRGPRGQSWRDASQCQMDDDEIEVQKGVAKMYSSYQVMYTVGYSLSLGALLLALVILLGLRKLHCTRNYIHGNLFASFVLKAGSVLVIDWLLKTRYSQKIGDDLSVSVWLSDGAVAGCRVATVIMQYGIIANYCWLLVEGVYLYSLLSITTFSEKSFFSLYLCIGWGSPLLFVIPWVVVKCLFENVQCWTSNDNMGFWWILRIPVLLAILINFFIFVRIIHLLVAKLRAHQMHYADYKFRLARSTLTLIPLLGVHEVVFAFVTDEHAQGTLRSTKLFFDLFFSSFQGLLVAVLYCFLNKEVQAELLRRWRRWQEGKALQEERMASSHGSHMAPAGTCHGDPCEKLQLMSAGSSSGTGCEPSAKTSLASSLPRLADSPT
Assay: Binding affinity to glucagon receptor in rat liver membrane by membrane filter assay
One number for each entry, as −log10 of the molar value.

- cpd_smiles: "O=C(O)CCNC(=O)c1ccc(CN(c2ccc(OC(F)(F)F)cc2)c2nc(-c3ccc(C(F)(F)F)cc3)cs2)cc1"
  study_target: "Glucagon receptor (Rattus norvegicus, UniProt P30082)"
  quantitative_result: 5.70
- cpd_smiles: "O=C(O)CCNC(=O)c1ccc(CN(c2ccc3c(c2)Cc2ccccc2-3)c2nc(-c3ccc(OC(F)(F)F)cc3)cs2)cc1"
  study_target: "Glucagon receptor (Rattus norvegicus, UniProt P30082)"
  quantitative_result: 5.74
- cpd_smiles: "O=C(O)CCNC(=O)c1ccc(CN(c2ccc3c(c2)CCCC3)c2nc(-c3ccc(Cl)c(Cl)c3)cs2)cc1"
  study_target: "Glucagon receptor (Rattus norvegicus, UniProt P30082)"
  quantitative_result: 5.80
- cpd_smiles: "O=C(O)CCNC(=O)c1ccc(CN(c2ccc3c(c2)CCC3)c2nc(-c3ccc(C(F)(F)F)cc3)cs2)cc1"
  study_target: "Glucagon receptor (Rattus norvegicus, UniProt P30082)"
  quantitative_result: 5.27

Let us examine a further case.
So what does the record say about pIC50 for O=C(O)CCNC(=O)c1ccc(CN(c2ccc(Cl)cc2)c2nc(-c3ccc(OC(F)(F)F)cc3)cs2)cc1 ?
5.77
